Attribution: paper PMC7754465

In this section, each of the compounds is paired with its reported kinact/KI at 500 µM.
- system-under-test: Cdk2(ES) = Cdk2(F80C,C177A) (Homo sapiens, UniProt P24941, C177A/F80C)
- Construct: GST (N, cleaved yes); made in house; host or cells: E. coli Tuner(DE3)
- test-method-notes: quantitative irreversible tethering (qIT): rate of cysteine modification of Cdk2(ES)
- Assay type: binding
- condition-parameters: fragment 0.5 mM, Cdk2(ES) 5 μM; read-out: Cdk2(ES): kobs/[I]
# unit: M⁻¹ s⁻¹ | format: bare number

# annotated cases, reported kinact/KI at 500 µM shown
C=CC(=O)N1CCN(C)c2cc(C(=O)OC)ccc21 [compound 10] = 1.91
C=CC(=O)N1CCn2c1nc1ccccc12 [compound 2] = 0.68
C=CC(=O)N1CCN(CC)c2cc(C(=O)OC)ccc21 [compound 9] = 8.48
C=CC(=O)N1CCN(CC2CC2)c2cc(C(=O)OC)ccc21 [compound 11] = 19.5
C=CC(=O)N1CCCc2cc(C(=O)OC)ccc21 [compound 1] = 1.31

Look up kinact/KI at 500 µM for this compound: C=CC(=O)N1CCN(CC)c2ccccc21 [compound 6]
0.1

###

# pKi annotations
- system-under-test: Cdk2(ES) (Homo sapiens, UniProt P24941, C177A/F80C)
- Construct: GST (N, cleaved yes); made in house; host or cells: E. coli Tuner(DE3)
- test-method-notes: concentration-dependent qIT with hyperbolic regression (Ki, kinact)
- Format: binding
- condition-parameters: roughly linear dependency up to 500 μM
pKi: −log10 of the molar value.

C=CC(=O)N1CCN(CC)c2ccccc21 [compound 6] = < 3.00

Fill in: pKi of C=CC(=O)N1CCCc2cc(C(=O)OC)ccc21 [compound 1] is ___
< 3.00
